- system.name: Neuropilin-1 (Homo sapiens) (UniProt O14786)
- Sequence (O14786 whole entry, looked up): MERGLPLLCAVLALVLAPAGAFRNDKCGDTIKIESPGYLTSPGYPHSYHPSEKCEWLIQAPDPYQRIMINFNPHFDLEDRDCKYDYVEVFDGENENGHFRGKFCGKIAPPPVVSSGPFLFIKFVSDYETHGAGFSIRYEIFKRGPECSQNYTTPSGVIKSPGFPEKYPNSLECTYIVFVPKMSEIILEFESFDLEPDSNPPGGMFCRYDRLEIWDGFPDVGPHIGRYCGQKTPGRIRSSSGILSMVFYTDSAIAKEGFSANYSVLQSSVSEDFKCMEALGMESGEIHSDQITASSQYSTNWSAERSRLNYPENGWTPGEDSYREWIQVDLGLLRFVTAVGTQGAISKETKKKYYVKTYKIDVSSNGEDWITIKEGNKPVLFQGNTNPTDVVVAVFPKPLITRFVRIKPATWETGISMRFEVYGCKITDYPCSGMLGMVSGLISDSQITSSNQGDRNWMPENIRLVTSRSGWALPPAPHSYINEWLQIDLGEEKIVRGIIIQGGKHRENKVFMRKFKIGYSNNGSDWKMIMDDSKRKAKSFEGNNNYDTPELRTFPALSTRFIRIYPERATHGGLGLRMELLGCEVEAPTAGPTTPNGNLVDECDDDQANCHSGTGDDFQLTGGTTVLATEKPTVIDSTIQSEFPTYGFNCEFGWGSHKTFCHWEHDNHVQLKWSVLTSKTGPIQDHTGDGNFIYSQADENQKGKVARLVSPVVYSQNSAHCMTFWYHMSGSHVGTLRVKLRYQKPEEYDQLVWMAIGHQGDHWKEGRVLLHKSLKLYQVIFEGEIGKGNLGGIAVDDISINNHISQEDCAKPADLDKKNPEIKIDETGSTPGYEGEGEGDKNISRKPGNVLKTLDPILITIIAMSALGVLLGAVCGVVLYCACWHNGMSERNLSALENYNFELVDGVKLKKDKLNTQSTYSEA
- protocol.summary: NRP-1 b1b2 CendR peptide binding inhibitors, dose response, biochemical, FP and AlphaScreen panel (AID 651650)
- condition.label: NRP-1 b1b2 / RPARPAR peptide binding, FP or AlphaScreen; AlphaScreen, mean of runs
Calls of active or inactive are those of the source.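 The calls were made as follows: active = mean IC50 below 20 µM in each of the two panels, so potent in both; inactive = the rest.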
assay.readout: IC50

Some solved entries appear below for comparison.
[
  {
    "compound": "Cc1cc(S(=O)(=O)NC2CCCCC2)ccc1OCC(=O)N1CCOCC1",
    "reported.result": "15.2 µM"
  },
  {
    "compound": "CCCCOc1ccc(S(=O)(=O)N2CCN(C)CC2)cc1",
    "reported.result": "inactive"
  },
  {
    "compound": "NC(=O)C1CCN(c2nc(-c3ccc4occc(=O)c4c3)cs2)CC1",
    "reported.result": "> 100 µM (inactive)"
  },
  {
    "compound": "Cn1cccc1C1Nc2ccccc2NC2=C1C(=O)CC(C)(C)C2 (stereo unspecified)",
    "reported.result": "> 100 µM (inactive)"
  },
  {
    "compound": "O=S(=O)(c1ccccc1)c1nc(-c2ccc(F)cc2)oc1N1CCOCC1",
    "reported.result": "> 100 µM (inactive)"
  },
  {
    "compound": "COc1cc(CN2C[C@@H](CO)O[C@@H](n3cnc4c(N5CCN(c6ccccc6)CC5)ncnc43)C2)cc(OC)c1OC",
    "reported.result": "inactive"
  },
  {
    "compound": "CC(=O)/C(=N\\Nc1ccc(Cl)cc1Cl)Sc1cccc2cccnc12",
    "reported.result": "> 100 µM (inactive)"
  },
  {
    "compound": "COC(=O)Cc1ccc(NC(=S)NCCCO)cc1",
    "reported.result": "> 100 µM (inactive)"
  }
]

# input Which IC50 value belongs to CSc1ncccc1C(=O)OCC(=O)NC1CCCCC1 ?
# output > 100 µM (inactive)

# input Which IC50 value belongs to OCCC1CCCCN1CC(O)COCc1ccc(Cl)cc1 (stereo unspecified) ?
# output > 100 µM (inactive)

# input Which IC50 value belongs to Cc1cc2cc(CNC(=O)c3ccc(S(=O)(=O)N4CCOCC4)cc3)ccc2n1C ?
# output > 100 µM (inactive)
